Test system: T. brucei brucei bloodstream form parasites (strain Lister 427)
method: Antitrypanosomal activity assay (resazurin; FIG. 2)
Assay type: cell-based
conditions: Trypanosoma brucei; 66 h + 6 h resazurin
Below: a set of entries, each annotated with reported pIC50.
In textbook form, pIC50 equals minus log to base ten of the concentration in mol/L.

Check out these entries, answers already filled in.
[[record]]
compound = "NCCn1nc(C(=O)NCc2cccc3ccccc23)c2c1CCN(Cc1ccc(Cl)c(Cl)c1)C2 [Compound 105]"
test_target = "T. brucei brucei bloodstream form parasites (strain Lister 427)"
recorded_value = 6.47

[[record]]
compound = "O=C(NCc1cccc2ccccc12)c1nn(CCO)c2c1CN(Cc1cccc3cccnc13)CC2 [Compound 45]"
test_target = "T. brucei brucei bloodstream form parasites (strain Lister 427)"
recorded_value = 4.97

[[record]]
compound = "COc1ccc(CN2CCc3c(c(C(=O)NCc4cccc5ccccc45)nn3CCNC(=N)N)C2)c2ccccc12 [Compound 94]"
test_target = "T. brucei brucei bloodstream form parasites (strain Lister 427)"
recorded_value = 6.13

[[record]]
compound = "O=C(NCc1ccccc1)c1nn(CCO)c2c1CN(Cc1ccc(OC(F)(F)F)cc1)CC2 [Compound 24]"
test_target = "T. brucei brucei bloodstream form parasites (strain Lister 427)"
recorded_value = 4.60


Q: Query (compound): CCOC(=O)CN(Cc1cccc2ccccc12)C(=O)c1nn(CCO)c2c1CN(Cc1ccc(OC)c3ccccc13)CC2 [Compound 121] ; field requested: pIC50
A: 5.30

Q: # lookup: pIC50 of COc1ccc(CN2CCc3c(c(C(=O)NCc4cccc5ccccc45)nn3C3CN(C(=O)C(C)(C)C)C3)C2)c2ccccc12 [Compound 15]
A: 5.83

====

test-target: PEX5-PEX14 complex (biotin-coupled PEX5 peptide, His-tagged T. brucei PEX14) (Trypanosoma brucei brucei, UniProt Q38CL4)
Sequence (Q38CL4 1-366, one chain of several): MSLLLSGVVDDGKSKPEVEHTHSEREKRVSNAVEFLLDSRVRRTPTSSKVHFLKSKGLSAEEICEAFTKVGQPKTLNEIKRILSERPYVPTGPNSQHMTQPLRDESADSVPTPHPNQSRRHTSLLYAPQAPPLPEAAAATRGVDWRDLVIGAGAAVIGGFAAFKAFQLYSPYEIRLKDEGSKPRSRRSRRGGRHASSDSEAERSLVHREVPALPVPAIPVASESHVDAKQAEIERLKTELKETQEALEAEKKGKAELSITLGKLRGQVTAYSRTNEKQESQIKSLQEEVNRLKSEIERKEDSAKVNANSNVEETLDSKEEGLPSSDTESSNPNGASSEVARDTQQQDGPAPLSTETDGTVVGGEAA
method: biochemical
Assay type: binding
conditions: 30 nM PEX5, 30 nM PEX14; quadruplicate; read-out: AlphaScreen EC50 [μM] (±SD)
Property: EC50; scope: individual compounds
Number in µM, nothing else.

Examples from the recorded data:
[[record]]
compound = "COc1ccc(CN2CCc3c(c(C(=O)NCc4cccc5ccccc45)nn3CCNC(=N)N)C2)c2ccccc12"
parameter = "EC50"
recorded_value = 1.4

[[record]]
compound = "O=C(NCc1cccc2ccccc12)c1nn(CCO)c2c1CN(Cc1ccc(F)c3ccccc13)CC2"
parameter = "EC50"
recorded_value = 121

[[record]]
compound = "O=C(NCc1ccccc1)c1nn(CCO)c2c1CN(Cc1ccn(-c3ccccc3)c1)CC2"
parameter = "EC50"
recorded_value = 196

[[record]]
compound = "COc1cc(CN2CCc3c(c(C(=O)NCc4ccccc4)nn3CCO)C2)cc2c1OCO2"
parameter = "EC50"
recorded_value = 94.9


Now consider the entry below.
Q: Using the record for O=C(NCc1ccccc1)c1nn(-c2ccccc2)c2c1CN(Cc1c[nH]c3ccccc13)CC2 , report its EC50.
A: 18.3

====

test-target: PEX5-PEX14 complex (biotin-coupled PEX5 peptide, His-tagged T. brucei PEX14) (Trypanosoma brucei brucei, UniProt Q38CL4)
method: biochemical
Assay type: binding
conditions: 30 nM PEX5, 30 nM PEX14; quadruplicate; read-out: AlphaScreen EC50 [μM] (±SD)
parameter: EC50 (µM)
Report the figure in µM without appending any unit label.

Solved entries (count: 6):
[[record]]
molecule = "O=C(NCc1ccccc1)c1nn(CCO)c2c1CN(Cc1ccccc1C(F)(F)F)CC2 [Compound 72]"
parameter = "EC50"
recorded_value = 223

[[record]]
molecule = "COc1ccc(CN2CCc3c(c(C(=O)NCc4cccc5[nH]ccc45)nn3CCO)C2)c2ccccc12 [Compound 60]"
parameter = "EC50"
recorded_value = 20.2

[[record]]
molecule = "NC(=O)Cn1nc(C(=O)NCc2ccccc2)c2c1CCN(Cc1c[nH]c3ccccc13)C2 [Compound 4]"
parameter = "EC50"
recorded_value = 1380

[[record]]
molecule = "O=C(NCc1cccc2ccccc12)c1nn(CCO)c2c1CN(Cc1ccc(C(F)(F)F)cc1)CC2 [Compound 48]"
parameter = "EC50"
recorded_value = 34

[[record]]
molecule = "Cc1ccc(CCN2CCc3c(c(C(=O)NCc4cccc5ccccc45)nn3CCO)C2)cc1 [Compound 118]"
parameter = "EC50"
recorded_value = 632

[[record]]
molecule = "COc1ccc(CN2CCc3nn(CCO)c(C(=O)NCc4cccc5ccccc45)c3C2)c2ccccc12 [Compound 90]"
parameter = "EC50"
recorded_value = 66.1


Q: Can you share its EC50? I mean this molecule: COC(=O)c1ccc2c(CN3CCc4c(c(C(=O)NCc5cccc6ccccc56)nn4CCO)C3)c[nH]c2c1 [Compound 108]
A: 38.7

Q: Give its EC50 value. Item: O=C(CC1CC1)N1CCc2c(c(C(=O)N3CCc4ccccc4C3)nn2Cc2ccccn2)C1 [Compound 73]
A: 220

Q: Look up EC50 for this molecule: Cn1nc(C(=O)NCc2cccc3ccccc23)c2c1CCN(Cc1cccc3ccccc13)C2 [Compound 33]
A: 41.8

Q: Form field: reported EC50 of CCc1ccc(CN2CCc3c(c(C(=O)NCc4ccccc4)nn3CCO)C2)cc1 [Compound 71]
A: 150

Q: Which EC50 reading was recorded for the molecule O=C(c1nn(Cc2ccccn2)c2c1CN(Cc1ccccc1)CC2)N1CCc2ccccc2C1 [Compound 67] ?
A: 74.3

Q: Please report the recorded EC50 for CC(NC(=O)c1nn(CCO)c2c1CN(C(=O)c1ncc3sccn13)CC2)c1ccccc1 (stereo not shown) [Compound 87] .
A: 230

Q: Name the reported EC50 value associated with the molecule COc1ccc2[nH]c(CN3CCc4c(c(C(=O)NCc5cccc6ccccc56)nn4CCO)C3)cc2c1 [Compound 110]
A: 43.8

====

Listed molecules paired with reported EC50
test-target: PEX5-PEX14 complex (biotin-coupled PEX5 peptide, His-tagged T. brucei PEX14) (Trypanosoma brucei brucei)
method: biochemical
Assay type: binding
conditions: 30 nM PEX5, 30 nM PEX14; quadruplicate; read-out: AlphaScreen EC50 [μM] (±SD)
Just the number in µM, nothing appended.

[[record]]
molecule = "CC(NC(=O)c1nn(CCO)c2c1CN(Cc1cnn(-c3ccccc3)c1)CC2)c1ccccc1 (stereo not drawn)"
parameter = "EC50"
unit_spec = "µM"
recorded_value = 112


Q: Record request: EC50 value, item O=C(NCc1cccc2ccccc12)c1nn(CCO)c2c1CN(Cc1cccc(-c3ccccc3)c1)CC2
A: 12.7

Q: Fill in the blank: the reported EC50 of COc1ccc(CN2CCc3c(c(C(=O)NCc4cccc5ccccc45)nn3Cc3ccccc3)C2)c2ccccc12 is ____.
A: 10.5

Q: Need EC50 of O=C(NCc1ccccc1)c1nn(CCO)c2c1CN(Cc1cccn1-c1ccccn1)CC2 , thanks.
A: 132

Q: What does the record list as EC50 for NCCn1nc(C(=O)NCc2cccc3ccccc23)c2c1CCN(Cc1ccc(Cl)cc1)C2 ?
A: 10

Q: Need EC50, item Cn1nc(C(=O)NCc2ccccc2)c2c1CCN(Cc1ccc(-c3ccccc3)cc1)C2
A: 27.8

Q: If you can, please state the reported EC50 value of COc1ccc(CN2CCc3c(c(C(=O)NCc4cccc5ccccc45)nn3CC(O)CN)C2)c2ccccc12 (stereo not drawn) .
A: 10.6

Q: Look at this molecule and give its reported EC50. C=CCn1nc(C(=O)NCc2ccccc2)c2c1CCN(Cc1ccc3ncccc3c1)C2
A: 95.4

Q: Please report the recorded EC50 for O=C(NCc1cccc2ccccc12)c1nn(CCO)c2c1CN(Cc1c[nH]c3c(C(=O)O)cccc13)CC2 .
A: 391

Q: So what does the record say about EC50 for COc1ccc(CN2CCc3c(c(C(=O)NCc4cccc5ccccc45)nn3C3CCCC3)C2)c2ccccc12 ?
A: 10.6

Q: Which value of EC50 has been reported for COc1ccc(CN2CCc3nn4c(c3C2)C(=O)N(Cc2cccc3ccccc23)CC4)c2ccccc12 in the records?
A: 19.2

Q: Look up EC50: O=C(NCc1cccc2ccccc12)c1nn(CCO)c2c1CN(Cc1cccc3c1OCO3)CC2
A: 84.4

Cited source for all entries: patent US10138242B2
